- measurement.target: 3',5'-cyclic-AMP phosphodiesterase 7B (Homo sapiens)
- Sequence (Q9NP56 whole entry): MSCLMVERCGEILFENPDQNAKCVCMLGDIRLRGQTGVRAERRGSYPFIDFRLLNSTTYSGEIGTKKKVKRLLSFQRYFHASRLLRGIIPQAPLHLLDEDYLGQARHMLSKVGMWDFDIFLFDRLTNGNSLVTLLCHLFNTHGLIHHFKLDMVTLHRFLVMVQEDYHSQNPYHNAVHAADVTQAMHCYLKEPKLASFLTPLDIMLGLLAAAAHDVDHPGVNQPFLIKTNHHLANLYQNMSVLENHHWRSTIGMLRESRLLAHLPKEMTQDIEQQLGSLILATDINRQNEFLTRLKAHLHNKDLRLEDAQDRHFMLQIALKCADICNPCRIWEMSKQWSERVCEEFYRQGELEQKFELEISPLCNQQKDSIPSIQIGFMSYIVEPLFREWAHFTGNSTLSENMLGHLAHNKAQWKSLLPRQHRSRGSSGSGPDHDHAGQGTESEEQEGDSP
- test.summary: Inhibition of recombinant full lenght human PDE7B using fluorescent labeled cAMP as substrate after 15 mins by IMAP assay
Ki values for the molecules below.
result.type: Ki (nM)

[[record]]
smiles_code = "CN1C(=O)c2c(nn(Cc3ccc(-c4ccccc4)cc3)c2Nc2ccccc2)N2C1=N[C@@H]1CCC[C@@H]12"
unit_of_measurement = "nM"
quantitative_readout = 910

[[record]]
smiles_code = "CN1C(=O)c2c(nn(Cc3ccc(C(F)(F)F)cc3)c2Nc2ccccc2)N2C1=N[C@@H]1CCC[C@@H]12"
unit_of_measurement = "nM"
quantitative_readout = 1200

[[record]]
smiles_code = "CN1C(=O)c2c(nn(Cc3ccc(C(F)(F)F)nc3)c2Nc2ccccc2)N2C1=N[C@@H]1CCC[C@@H]12"
unit_of_measurement = "nM"
quantitative_readout = 6100

[[record]]
smiles_code = "CN1C(=O)c2c(nn(Cc3ccc(-c4ccccn4)cc3)c2Nc2ccccc2)N2C1=N[C@@H]1CCC[C@@H]12"
unit_of_measurement = "nM"
quantitative_readout = 300


###

- test.summary: Solubility of compound in PBS
- Format: physicochemical
result.type: solubility (µM)

[[record]]
molecule = "CN1C(=O)c2c(nn(Cc3ccc(C(F)(F)F)cc3)c2Nc2ccccc2)N2C1=N[C@@H]1CCC[C@@H]12"
relational_operator = "="
quantitative_readout = 35

[[record]]
molecule = "CN1C(=O)c2c(nn(Cc3ccc(C(F)(F)F)cc3)c2Nc2ccc(F)cc2)N2C1=N[C@@H]1CCC[C@@H]12"
relational_operator = "="
quantitative_readout = 31

[[record]]
molecule = "CN1C(=O)c2c(nn(Cc3ccc(-c4cccc(F)n4)cc3)c2Nc2ccccc2)N2C1=N[C@@H]1CCC[C@@H]12.O=P(O)(O)O [LENRISPODUN PHOSPHATE]"
relational_operator = "="
quantitative_readout = 22

[[record]]
molecule = "CN1C(=O)c2c(nn(Cc3ccc(-c4ccccc4)cc3)c2Nc2ccccc2)N2C1=N[C@@H]1CCC[C@@H]12"
relational_operator = "="
quantitative_readout = 2

[[record]]
molecule = "CN1C(=O)c2c(nn(Cc3ccc(S(N)(=O)=O)cc3)c2Nc2ccccc2)N2C1=N[C@@H]1CCC[C@@H]12"
relational_operator = ">"
quantitative_readout = 100

[[record]]
molecule = "CN1C(=O)c2c(nn(Cc3ccc(-c4cccc(F)n4)cc3)c2Cc2ccc(F)cc2)N2C1=N[C@@H]1CCC[C@@H]12"
relational_operator = "<"
quantitative_readout = 1

[[record]]
molecule = "CN1C(=O)c2c(nn(Cc3ccc(-c4cccc(F)n4)cc3)c2Sc2ccccc2)N2C1=N[C@@H]1CCC[C@@H]12"
relational_operator = "<"
quantitative_readout = 1

[[record]]
molecule = "CN1C(=O)c2c(nn(Cc3ccc(-c4cccc(F)n4)cc3)c2Cc2ccccc2)N2C1=N[C@@H]1CCC[C@@H]12"
relational_operator = "<"
quantitative_readout = 1

[[record]]
molecule = "CN1C(=O)c2c(nn(Cc3ccc(-c4ccccn4)cc3)c2Nc2ccccc2)N2C1=N[C@@H]1CCC[C@@H]12"
relational_operator = ">"
quantitative_readout = 100

[[record]]
molecule = "CN1C(=O)c2c(nn(Cc3ccc(-c4cccc(F)n4)cc3)c2Oc2ccccc2)N2C1=N[C@@H]1CCC[C@@H]12"
relational_operator = "="
quantitative_readout = 8

[[record]]
molecule = "CN1C(=O)c2c(nn(Cc3ccc(-c4cccc(F)n4)cc3)c2Oc2ccc(F)cc2)N2C1=N[C@@H]1CCC[C@@H]12"
relational_operator = "="
quantitative_readout = 7

